Measured values drawn from patent US9796742B2 for this set.

target: GSK3α (Homo sapiens (Human))
Sequence (P49840 whole entry): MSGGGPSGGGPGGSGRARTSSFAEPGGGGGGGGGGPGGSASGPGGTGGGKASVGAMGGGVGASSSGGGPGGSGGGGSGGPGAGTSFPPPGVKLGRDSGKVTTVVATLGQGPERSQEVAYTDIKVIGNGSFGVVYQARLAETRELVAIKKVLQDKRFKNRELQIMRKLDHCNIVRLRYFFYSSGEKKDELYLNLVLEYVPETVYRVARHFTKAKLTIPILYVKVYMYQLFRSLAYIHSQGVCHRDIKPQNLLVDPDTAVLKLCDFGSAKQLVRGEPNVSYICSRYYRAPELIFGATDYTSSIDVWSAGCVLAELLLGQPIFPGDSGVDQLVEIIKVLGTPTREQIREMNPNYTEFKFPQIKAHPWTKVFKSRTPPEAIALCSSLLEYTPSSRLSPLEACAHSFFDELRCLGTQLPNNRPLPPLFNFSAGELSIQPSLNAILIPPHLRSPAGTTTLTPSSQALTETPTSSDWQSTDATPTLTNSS
quantity_measured: IC50 (nM)

Would you please look over these solved cases?
>>> value_measured("CC(C)(C)c1cc(NC(=O)Nc2ccc(Oc3ccnc(Nc4cccc(OCCN5CCOCC5)c4)n3)c3ccccc23)n(-c2cccc(CP(C)(C)=O)c2)n1")
324
>>> value_measured("COc1cc(Nc2nccc(Oc3ccc(NC(=O)Nc4cc(C(C)C)nn4-c4cccc(CP(C)(C)=O)c4)c4ccccc34)n2)cc(S(=O)(=O)C2CC2)c1")
1600
>>> value_measured("Cc1cc(Nc2nccc(Oc3ccc(NC(=O)Nc4cc(C(C)C)nn4-c4cccc(CP(C)(C)=O)c4)c4ccccc34)n2)cc2cn[nH]c12")
4860

(1) CC(C)(C)c1cc(NC(=O)Nc2ccc(Oc3ccnc(N4CCC[C@H]4CO)n3)c3ccccc23)n(-c2ccc(P(C)(C)=O)cc2)n1
(2) CC(C)c1cc(NC(=O)Nc2ccc(Oc3ccnc(Nc4cc(C#N)cc(OCCN5CCOCC5)c4)n3)c3ccccc23)n(-c2cccc(CP(C)(C)=O)c2)n1
(3) Cc1cc(Nc2nccc(Oc3ccc(NC(=O)Nc4cc(C(C)(C)C)nn4-c4ccc(P(C)(C)=O)cc4)c4ccccc34)n2)cc2cn[nH]c12
(4) COc1cc(Nc2cc(Oc3ccc(NC(=O)Nc4cc(C(C)C)nn4-c4cccc(CP(C)(C)=O)c4)c4ccccc34)ccn2)cc(C(=O)NCCN2CCOCC2)c1
(5) CC(C)(C)c1cc(NC(=O)Nc2ccc(Oc3ccnc(Nc4ccc5c(c4)NC(=O)C5)n3)c3ccccc23)n(-c2cccc(CP(C)(C)=O)c2)n1
IN: Sort low-to-high on IC50, please. When ranking, write the labels in the order the request describes.
OUT: 5, 3, 2, 4, 1

(1) COCCOCCOCCOc1cc(Nc2nccc(Oc3ccc(NC(=O)Nc4cc(C(C)C)nn4-c4cccc(CP(C)(C)=O)c4)c4ccccc34)n2)cc(OC)c1
(2) CC(C)(C)c1cc(NC(=O)Nc2ccc(Oc3ccnc(Nc4ccccc4)c3)c3ccccc23)n(-c2cccc(CP3(=O)CCCC3)c2)n1
IN: Select the item whose IC50 value is smaller, choosing between 1 and 2 . Mark your selection by writing its label.
OUT: 1
(1: 1130 nM, 2: 8040 nM)

(P) CC(C)(C)c1cc(NC(=O)Nc2ccc(Oc3ccnc(Nc4ccccc4)n3)c3ccccc23)n(-c2ccc(P(C)(C)=O)cc2)n1
(Q) CC(C)(C)c1cc(NC(=O)Nc2ccc(Oc3ccnc(Nc4ccccc4)c3)c3ccccc23)n(-c2cccc(CP(C)(C)=O)c2)n1
IN: // max by IC50 over [ P , Q ] Please respond with the label that marks your chosen entry.
OUT: Q

====

molecular target: Syk (Homo sapiens (Human), UniProt P43405); assay: Syk enzyme inhibition (FRET, Z-LYTE); type: biochemical
quantity_measured: IC50 (µM)

Some molecules with known IC50 results, for comparison:
>>> value_measured("CCP(=O)(CC)c1ccc(-n2nc(C(C)(C)C)cc2NC(=O)Nc2ccc(Oc3ccnc(Nc4ccccc4)n3)c3ccccc23)cc1")
0.2
>>> value_measured("CC(C)c1cc(NC(=O)Nc2ccc(Oc3ccnc(Nc4cc(OCCN5CCOCC5)cc(C(F)(F)F)c4)n3)c3ccccc23)n(-c2cccc(CP(C)(C)=O)c2)n1")
0.219
>>> value_measured("CC(C)(C)c1cc(NC(=O)Nc2ccc(Oc3ccnc(Nc4cc(OCCN5CCOCC5)cc(C(F)(F)F)c4)n3)c3ccccc23)n(-c2cccc(CP(C)(C)=O)c2)n1")
0.024

(A) CC(C)(C)c1cc(NC(=O)Nc2ccc(Oc3ccnc(Nc4ccccc4)n3)c3ccccc23)n(-c2ccc(P(C)(C)=O)cc2)n1
(B) COCCOCCOCCOc1cc(Nc2nccc(Oc3ccc(NC(=O)Nc4cc(C(C)(C)C)nn4-c4cccc(CP(C)(C)=O)c4)c4ccccc34)n2)cc(OC)c1
(C) Cc1cc(Nc2nccc(Oc3ccc(NC(=O)Nc4cc(C(C)(C)C)nn4-c4ccc(P(C)(C)=O)cc4)c4ccccc34)n2)cc2cn[nH]c12
IN: hey, can you rank those molecules up there by IC50? biggest number first please Write the labels in rank order as requested.
OUT: A, B, C
(A: 0.034 µM, B: 0.008 µM, C: 0.002 µM)

(1) Cc1cc(Nc2nccc(Oc3ccc(NC(=O)Nc4cc(C(C)C)nn4-c4cccc(CP(C)(C)=O)c4)c4ccccc34)n2)cc2cn[nH]c12
(2) CC(C)(C)c1cc(NC(=O)Nc2ccc(Oc3ccnc(Nc4ccc(S(F)(F)(F)(F)F)cc4)n3)c3ccccc23)n(-c2ccc(P(C)(C)=O)cc2)n1
IN: Record comparison, field IC50: mark the lower of 1 and 2 . In your reply, give the label of the chosen option.
OUT: 1

====

Each entry below carries its reported IC50.
System: PBMCs
Test: LPS-induced TNFα/IL-8 release in PBMC cells
Assay type: cell-based
Settings: Homo sapiens, LPS-stimulated PBMCs, IL-8, read-out: IC50 Values for Inhibition of Cytokine Release, PBMCs IL-8
Excerpt: Peripheral blood mononuclear cells (PBMCs) from healthy subjects are separated from whole blood using a density gradient (Lymphoprep, Axis-Shield Healthcare). […] The supernatant is harvested for determination of IL-8 and TNFα concentrations by sandwich ELISA (Duo-set, R&D systems) and read on the fluorescence microplate reader (Varioskan® Flash, ThermoFisher Scientific). […]
Return type: number; implicit unit nM.

IN: Request the reported IC50 associated with CC(C)(C)c1cc(NC(=O)Nc2ccc(Oc3ccnc(Nc4ccc5c(c4)NC(=O)C5)n3)c3ccccc23)n(-c2ccc(P(C)(C)=O)cc2)n1 [Example 14]
OUT: 13.2

====

system: PBMCs; assay: IL-2 and IFN gamma release in CD3/CD28 stimulated PBMC cells; type: cell-based; conditions: Homo sapiens, IFNγ, read-out: IC50 Values for Inhibition of Cytokine Release, PBMCs IFNγ
quantity_measured: IC50 (nM)
Form entry: value (nM) — number only.

>>> value_measured("Cc1cc(Nc2nccc(Oc3ccc(NC(=O)Nc4cc(C(C)(C)C)nn4-c4cccc(CP(C)(C)=O)c4)c4ccccc34)n2)cc2cn[nH]c12 [Example 32]")
2.3
>>> value_measured("COCCOCCOCCOc1cc(Nc2nccc(Oc3ccc(NC(=O)Nc4cc(C(C)(C)C)nn4-c4cccc(CP(C)(C)=O)c4)c4ccccc34)n2)cc(OC)c1 [Example 60]")
1.9
>>> value_measured("CC(C)c1cc(NC(=O)Nc2ccc(Oc3ccnc(Nc4cc(OCCN5CCOCC5)cc(C(F)(F)F)c4)n3)c3ccccc23)n(-c2cccc(CP(C)(C)=O)c2)n1 [Example 49]")
5.1

IN: Short answer please: IC50, PBMCs, entry CC(C)(C)c1cc(NC(=O)Nc2ccc(Oc3ccnc(Nc4cc(OCCN5CCOCC5)cc(C(F)(F)F)c4)n3)c3ccccc23)n(-c2cccc(CP(C)(C)=O)c2)n1 [Example 61]
OUT: 3.3

IN: IC50 of CC(C)(C)c1cc(NC(=O)Nc2ccc(Oc3ccnc(Nc4cc(OC(F)(F)F)cc(C(=O)NCCN5CCOCC5)c4)n3)c3ccccc23)n(-c2cccc(CP(C)(C)=O)c2)n1 [Example 59] on PBMCs?
OUT: 2.5

IN: Give recorded IC50 with PBMCs for the following molecule: CC(C)(C)c1cc(NC(=O)Nc2ccc(Oc3ccnc(Nc4cc(C(=O)NCCN5CCOCC5)cc(C(F)(F)F)c4)n3)c3ccccc23)n(-c2cccc(CP(C)(C)=O)c2)n1 [Example 58]
OUT: 4.8

====

tested on: PBMCs; test: LPS-induced TNFα/IL-8 release in PBMC cells; format: cell-based; conditions: Homo sapiens, LPS-stimulated PBMCs, IL-8, read-out: IC50 Values for Inhibition of Cytokine Release, PBMCs IL-8
quantity_measured: IC50 (nM)
Hi! Could you send only the number? It should be in nM, unit omitted.

>>> value_measured("CC(C)(C)c1cc(NC(=O)Nc2ccc(Oc3ccnc(Nc4ccccc4)n3)c3ccccc23)n(-c2ccc(P(C)(C)=O)cc2)n1 [Example 1]")
6.9

Switching to the query record.
IN: Need IC50, item CC(C)(C)c1cc(NC(=O)Nc2ccc(Oc3ccnc(Nc4cccc(C(=O)NCCN5CCOCC5)c4)n3)c3ccccc23)n(-c2cccc(P(C)(C)=O)c2)n1 [Example 16]
OUT: 8.3

====

IC50 values for the compounds below.
tested on: PBMCs; assay: LPS-induced TNFα/IL-8 release in PBMC cells; assay type: cell-based; details: Homo sapiens, LPS-stimulated PBMCs, IL-8, read-out: IC50 Values for Inhibition of Cytokine Release, PBMCs IL-8
Number in nM, nothing else.

>>> value_measured("CN(CCCO)c1nccc(Oc2ccc(NC(=O)Nc3cc(C(C)(C)C)nn3-c3ccc(P(C)(C)=O)cc3)c3ccccc23)n1")
280
>>> value_measured("CC(C)(C)c1cc(NC(=O)Nc2ccc(Oc3ccnc(Sc4ccccc4)n3)c3ccccc23)n(-c2ccc(P(C)(C)=O)cc2)n1")
150

For the next question, use this compound.
IN: Data request, read-out IC50, for CCP(=O)(CC)Cc1cccc(-n2nc(C(C)(C)C)cc2NC(=O)Nc2ccc(Oc3ccnc(Nc4cc(C)c5[nH]ncc5c4)n3)c3ccccc23)c1
OUT: 3.5
